# ASSAY_REMARKS: ATG_GLI_CIS: Attagene CIS-FACTORIAL HepG2 Assay for human Zinc Finger Protein GLI1 (AID 2282945)
# ASSAY_CONTEXT: HepG2, Attagene cis-factorial reporter mRNA, GLI element; actives raise or lower the signal
Calls of active or inactive are those of the source. How the source made its calls: active means hit-call score of the fitted dose curve at least 0.9, where 1 is the maximum; inactive means score below 0.9.
REPORTED_METRIC: outcome

1) Cc1cc(C)n(CO)n1	inactive
2) CC(=O)c1ccc(S(=O)(=O)NC(=O)NC2CCCCC2)cc1	inactive
3) O=C1CCCCCCCCCCC1	inactive
4) O=C(Oc1ccccc1)c1ccccc1C(=O)Oc1ccccc1	inactive
5) O=C1CCCCC1C1CCCCC1 (centres undefined)	inactive
6) CCC1COC(=O)O1 (centres undefined)	inactive
7) CCCCCCCCCC[N+](C)(CCCCCCCCCC)CCC[Si](OC)(OC)OC	inactive
8) C=C[C@@]1(C)CC(=O)[C@]2(O)[C@@]3(C)[C@@H](O)CCC(C)(C)[C@@H]3[C@H](O)[C@H](OC(C)=O)[C@@]2(C)O1	inactive
9) OCCCc1ccccc1	inactive
10) CCCCCC(=O)OCC	inactive
11) CCCCOC(=O)CCC(C)=O	inactive
12) CCN(CC)c1cccc(C)c1	inactive
13) CC1CCC(=O)C1=O (centres undefined)	inactive
14) CCCCCCCCC(CO)CCCCCC (centres undefined)	inactive

---

# ASSAY_REMARKS: ACEA_ER_80hr: ACEA Biosciences xCELLigence Real-Time Cell Analysis on Estrogen Receptor Agonism for Proliferation (AID 2282667)
# ASSAY_CONTEXT: T47D proliferation, impedance (xCELLigence), 80 h
Records with an inconclusive call do not appear. Activity calls are given as the source filed them. Rule for the calls: active = hit-call score of the fitted dose curve at least 0.9, where 1 is the maximum; inconclusive = response in the unintended direction; inactive = score below 0.9.
REPORTED_METRIC: outcome

1. Cn1ccnc1	inactive
2. CC(C)CO	inactive
3. CC(C)(c1ccccc1)c1ccc(Nc2ccc(C(C)(C)c3ccccc3)cc2)cc1	inactive
4. CC(=O)OCC=C(C)C	inactive
5. [Cl][Eu]([Cl])[Cl]	inactive
6. CC1CCC(=O)C1=O (stereo not drawn)	inactive
7. O=C(Oc1ccccc1)c1ccccc1O	inactive
8. CN(C)Cc1cc(CN(C)C)c(O)c(CN(C)C)c1	inactive

---

# Read-out: KRT18 (gene 3875)
# ASSAY_REMARKS: BSK_BE3C_Keratin818: BioMAP Diversity Plus: BE3C Assay for Keratin 818 Biomarker Activity (AID 2284282)
# ASSAY_CONTEXT: primary human bronchial epithelial cells
Activity calls are given as the source filed them. The calls were made as follows: active = hit-call score of the fitted dose curve at least 0.9, where 1 is the maximum; inactive = score below 0.9.
REPORTED_METRIC: outcome

1. CCCC(C)C(=O)OCC (stereo not given)	inactive
2. Nc1nc(N)nc(-c2ccccc2)n1	inactive
3. O=C(O)C(F)(F)C(F)(F)C(F)(F)C(F)(F)C(=O)O	inactive
4. CCCCCCCCCCCC(=O)N(C)CC(=O)O	inactive
5. C[N+](C)(C)CCCNS(=O)(=O)C(F)(F)C(F)(F)C(F)(F)C(F)(F)C(F)(F)C(F)(F)C(F)(F)C(F)(F)F	inactive

---

# Read-out: Monokine induced gamma interferon (MIG), CXCL9 (gene 4283)
# ASSAY_REMARKS: BSK_SAg_MIG: BioMAP Diversity Plus: SAg Assay for Monokine induced gamma interferon (MIG) Biomarker Activity (AID 2283092)
# ASSAY_CONTEXT: primary human HUVEC with PBMC; actives raise or lower the signal
Calls of active or inactive are those of the source. How the source made its calls: active means hit-call score of the fitted dose curve at least 0.9, where 1 is the maximum; inactive means score below 0.9.
REPORTED_METRIC: outcome

1. Clc1cc(Cl)c(Cl)c(Cl)c1Cl	inactive
2. CCc1cccc(C)c1N(C(=O)CS(=O)(=O)O)C(C)COC (stereo not drawn)	inactive
3. CCCCC1C(=O)N(c2ccccc2)N(c2ccccc2)C1=O	inactive
